# maps each entry to its Emax
- Target Of Assay: μOR (Homo sapiens, UniProt P35372)
- Construct: host or cells: CHO-K1
- Sequence (P35372 whole entry): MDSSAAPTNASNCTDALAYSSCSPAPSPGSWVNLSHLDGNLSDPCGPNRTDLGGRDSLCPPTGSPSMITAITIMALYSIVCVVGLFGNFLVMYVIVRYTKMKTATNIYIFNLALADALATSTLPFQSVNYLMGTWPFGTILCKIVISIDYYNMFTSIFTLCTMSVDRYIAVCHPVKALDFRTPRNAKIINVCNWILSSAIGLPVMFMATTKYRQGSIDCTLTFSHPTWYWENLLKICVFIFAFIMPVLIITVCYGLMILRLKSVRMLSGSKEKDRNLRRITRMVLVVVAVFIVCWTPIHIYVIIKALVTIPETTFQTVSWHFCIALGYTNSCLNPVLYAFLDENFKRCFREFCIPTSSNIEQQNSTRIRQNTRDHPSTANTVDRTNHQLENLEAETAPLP
- Measurement Protocol: cell-based
- Format: cell-based
- Condition Description: read-out: μOR cAMP inhibition Emax ± SEM (%)

Example entries and their recorded answers appear below.
{"columns": ["Compound", "Measured"],
 "data": [
  ["CC=C1C[N+]2(CC3CC3)CCC34C(=C(C(=O)OC)C1CC32)Nc1ccccc14 (stereo not drawn)", "< 10%"],
  ["C/C=C1/C[N+]2(CC3CC3)CC[C@]34C(=C(C(=O)OC)[C@H]1C[C@@H]32)Nc1ccc(Br)cc14 (stereo partly drawn)", "< 10%"],
  ["CCC1CN2CCC34C(=C(C(=O)OC)C1CC23)Nc1ccc(Br)cc14 (stereo not drawn) [Compound 27, 10-Bromo-19,20-dihydroakuammicine]", "107%"],
  ["C/C=C1/CN2CC[C@]34C(=C(C(=O)OC)[C@H]1C[C@H]23)Nc1ccc(-c2ccsc2)cc14", "107%"],
  ["CC=C1C[N+]2(C)CCC34C(=C(C(=O)OC)C1CC32)Nc1ccc(Br)cc14 (stereo not drawn)", "< 10%"]
]}

Missing value: Emax, μOR (Homo sapiens, UniProt P35372), entry C/C=C1/C[N+]2(CCC)CC[C@]34C(=C(C(=O)OC)[C@H]1C[C@@H]32)Nc1ccccc14 (stereo partly drawn) . Fill in? < 10%
